# measured.target: recombinant homotrimeric HA, A/California/4/09 H1N1 (Influenza A virus A/California/4/09 (H1N1))
# assay.name: trimeric HA microarray, transfection set 5
# measurement.parameters: remark: other sources report otherwise
Class assignment keyed on Trimeric HA Binding RLU, ranges lo: < 1000 RLU; med: ≥ 1000 RLU and < 20000 RLU; hi: ≥ 20000 RLU

Observe how each entry below is paired with its result.
binder="TCN-550 (5096_F06) (antibody, V domains shown) VH: QVQLQESGPGLVKPSETLSLTCTVSGASINSHYWSWIRQPPGKGLEWIGYVYYSGSTTYNPSLKSRVTLSVDTSKNQFSLNLSSVTAADTAFYYCARHPYDVLTGSGDWFDPWGQGTLVTVSS VL: SYVLTQAPSVSVAPGQTARITCGGNAIGSKKVHWYQHKAGQAPVLVVYDDTDRPSGIPERFSGSNSWSTATLTINRVEAGDEADYYCQVWDFTIDHVVFGGGTKLTVL" classification=lo
binder="TCN-537 (3194_D21) (antibody, V domains shown) VH: QVQLQQWGSGLLKPSETLSLTCAVYGGSFRDDYWTWIRQPPGKGLEWIGEINHSGRTNYNPSLKSRVTISVDTSLKQFSLKVISVTAADTAVYYCARGTSHVSRYFDWLPPTNWFDPWGQGTQVTVSS VL: DIVLTQSPGTLSLSPGERATLSCRASQSVSSSYLAWYQQKPGQAPRLVMYGAATRATGIPDRFSGSGSGPDFTLTISRLEPEDFAMYYCQQYGNSPITFGQGTRLEIK" classification=hi
binder="TCN-546 (5089_L08) (antibody, V domains shown) VH: QVQLQQWGAGLLKPSETLSLTCGVYGGSLSDYYWSWIRQPPGKGLEWIGEINHSGGTNYNPSLKRRVTISVDTSKKQFSLKMNSVTAADTAVYYCARGTDPDTEVYCRAGNCAAFDFWGQGTLVTVSS VL: EIVLTQSPGTLSLSPGERATLSCRASHFVIGRAVAWYQQKPGQAPRLLIYGASSRATGIPDRFSGSGSGTDFTLTISRLETEDFAVFYCQHYGSSPRYAFGQGTKLEIK" classification=med

Attention now turns to another entry.
State the band of TCN-552 (5249_I23) (antibody, V domains shown) VH: QVQVVQSGAEVKKPGSSVRVSCQASGGTFMNYAIIWVRRAPGQGLEWMGGIIPVFPTPNYAQMFQGRVTISTDESRSTSFLELTNLRYEDTAVYYCARRIYHGGNSGFDFWGQGTLVTVSS VL: EIVLTQSPATLSLSPGERATLSCRASQSVGNYLAWYQQKPGQAPRLLIYDSSNRAPGIPARFSGSGSGTDFTLTISSLAPEDFAVYYCQQRSKWPPMYSFGHGTKLEIK
hi

Values were extracted from patent US20120207760A1.
